This listing pairs proteins with measured kcat.
Substrate: NC(=O)C1=CN([C@@H]2O[C@H](COP(=O)(O)OP(=O)(O)OC[C@H]3O[C@@H](n4cnc5c(N)ncnc54)[C@H](OP(=O)(O)O)[C@@H]3O)[C@@H](O)[C@H]2O)C=CC1
Assay remarks: NADPH-dependent diaphorase assay
Format: biochemical, Zea mays
Assay setup: DCPIP as electron acceptor
Text: NADPH-dependent diaphorase assay on maize leaf FNR (L‐FNR)
Measurement label: kcat (s⁻¹)

| Protein | Measurement unit | Measured |
| --- | --- | --- |
| maize leaf FNR (L‐FNR) (Zea mays; Y355S) (protein, recombinant mature leaf FNR, FAD flavoprotein, C-terminal Tyr314) IRAQASAVEAPATAKAKKESKKQEEGVVTNLYKPKEPYVGRCLLNTKITGDDAPGETWHMVFSTEGKIPYREGQSIGVIADGVDKNGKPHKVRLYSIASSAIGDFGDSKTVSLCVKRLIYTNDAGEIVKGVCSNFLCDLQPGDNVQITGPVGKEMLMPKDPNATIIMLATGTGIAPFRSFLWKMFFEKHDDYKFNGLGWLFLGVPTSSSLLYKEEFGKMKERAPENFRVDYAVSREQTNAAGERMYIQTRMAEYKEELWELLKKDNTYVYMCGLKGMEKGIDDIMVSLAEKDGIDWFDYKKQLKRGDQWNVEVS | s⁻¹ | 41 |
| maize leaf FNR (L‐FNR) (Zea mays; R285Q) (protein, recombinant mature leaf FNR, FAD flavoprotein, C-terminal Tyr314) IRAQASAVEAPATAKAKKESKKQEEGVVTNLYKPKEPYVGRCLLNTKITGDDAPGETWHMVFSTEGKIPYREGQSIGVIADGVDKNGKPHKVRLYSIASSAIGDFGDSKTVSLCVKRLIYTNDAGEIVKGVCSNFLCDLQPGDNVQITGPVGKEMLMPKDPNATIIMLATGTGIAPFRSFLWKMFFEKHDDYKFNGLGWLFLGVPTSSSLLYKEEFGKMKERAPENFRVDYAVSREQTNAAGEQMYIQTRMAEYKEELWELLKKDNTYVYMCGLKGMEKGIDDIMVSLAEKDGIDWFDYKKQLKRGDQWNVEVY | s⁻¹ | 139 |
| maize leaf FNR (L‐FNR) (Zea mays) (protein, recombinant mature leaf FNR, FAD flavoprotein, C-terminal Tyr314) IRAQASAVEAPATAKAKKESKKQEEGVVTNLYKPKEPYVGRCLLNTKITGDDAPGETWHMVFSTEGKIPYREGQSIGVIADGVDKNGKPHKVRLYSIASSAIGDFGDSKTVSLCVKRLIYTNDAGEIVKGVCSNFLCDLQPGDNVQITGPVGKEMLMPKDPNATIIMLATGTGIAPFRSFLWKMFFEKHDDYKFNGLGWLFLGVPTSSSLLYKEEFGKMKERAPENFRVDYAVSREQTNAAGERMYIQTRMAEYKEELWELLKKDNTYVYMCGLKGMEKGIDDIMVSLAEKDGIDWFDYKKQLKRGDQWNVEVY | s⁻¹ | 76 |
